tested on: HT-29 colon adenocarcinoma cells; conditions: read-out: Chelate Concentration Producing 50% Inhibition of Cancer Cell Growth, MTS, 96 hour continuous exposure
ATTRIBUTE MEASURED: IC50 (µM)
Please state the figure in µM; there is no need to write the unit.

Lab note: need IC50 with HT-29 colon adenocarcinoma cells for entry CCOP(=O)([O-])CN1CCN(Cc2ccc3cc(C)ccc3n2)CCN(CP(=O)([O-])OCC)CCN(CP(=O)([O-])OCC)CC1.[Eu+3] [Eu-QCTME] , please look it up.
15.8

====

test system: HEK293 cells; assay: Adsorption of chelate compounds to cells (HPLC and mass spectrometry); type: cell-based, human
ATTRIBUTE MEASURED: adsorption in normal cells (HEK293)

Use the examples below as a reference point.
>>> experimental_result("CCCCOP(=O)(O)Cc1cccc(CP(=O)(O)OCCCC)n1 [Compound 6]")
"adsorbed"
>>> experimental_result("COP(=O)(O)Cc1c(C)c(CP(=O)(O)OC)c(C)c(CP(=O)(O)OC)c1C [Compound 10]")
"did not adsorb"
>>> experimental_result("COP(=O)(O)CNCCCN(CCCNCP(=O)(O)OC)CP(=O)(O)OC [Compound 19]")
"adsorbed"
>>> experimental_result("COP(=O)(O)Cc1cccc(CP(=O)(O)OC)n1 [Compound 4]")
"adsorbed"
>>> experimental_result("CCCCOP(=O)(O)Cc1ccc2cc(C)ccc2n1 [Compound 3]")
"not adsorbed"
>>> experimental_result("CCOP(=O)(O)CNCCCN(CCCNCP(=O)(O)OCC)CP(=O)(O)OCC [Compound 20]")
"adsorbed"

Given CCOP(=O)(O)Cc1cc(CP(=O)(O)OCC)cc(CP(=O)(O)OCC)c1 [Compound 8] , state its recorded adsorption in normal cells (HEK293).
not adsorbed

Given the entry COP(=O)(O)Cc1ccc2cc(C)ccc2n1 [Compound 1] , report its measured adsorption in normal cells (HEK293).
did not adsorb

Given the molecule CCOP(=O)(O)Cc1ccc2cc(C)ccc2n1 [Compound 2] , what is its reported adsorption in normal cells (HEK293)?
not adsorbed

For CCCCOP(=O)(O)Cc1cc(CP(=O)(O)OCCCC)cc(CP(=O)(O)OCCCC)c1 [Compound 9] , what is its reported adsorption in normal cells (HEK293)?
not adsorbed

Please look up its adsorption in normal cells (HEK293): CCN(CC)CCCN(CC)CCCN(CC)CC [Compound 23]
adsorbed

Which adsorption in normal cells (HEK293) is listed for CCCCOP(=O)(O)Cc1c(C)c(CP(=O)(O)OCCCC)c(C)c(CP(=O)(O)OCCCC)c1C [Compound 12] ?
not adsorbed

Item under review: COP(=O)(O)Cc1cc(CP(=O)(O)OC)cc(CP(=O)(O)OC)c1 [Compound 7] . Reported adsorption in normal cells (HEK293)?
did not adsorb

====

test system: HEK293 cells; experiment: Permeability: detection of chelate compounds in the cytoplasm; assay type: cell-based, human; design: key: Absence = 0; presence = +; settings: 50 μM, 90 minutes at 37 °C
Marks after values point to notes of the source that are not given here.
ATTRIBUTE MEASURED: Permeability HEK293

The cases that follow already have their Permeability HEK293 on record.
>>> experimental_result("CCCCOP(=O)(O)Cc1c(C)c(CP(=O)(O)OCCCC)c(C)c(CP(=O)(O)OCCCC)c1C [Compound 12]")
0
>>> experimental_result("CCCCOP(=O)(O)Cc1ccc2cc(C)ccc2n1 [Compound 3]")
0
>>> experimental_result("CCCCOP(=O)(O)Cc1cc(CP(=O)(O)OCCCC)cc(CP(=O)(O)OCCCC)c1 [Compound 9]")
0
>>> experimental_result("CCOP(=O)(O)Cc1cc(CP(=O)(O)OCC)cc(CP(=O)(O)OCC)c1 [Compound 8]")
0

Pending compound:
Can you look up the measured Permeability HEK293 of CCOP(=O)(O)Cc1ccc2cc(C)ccc2n1 [Compound 2] for me?
0^b

====

tested on: Caco-2 cells; assay: Adsorption of chelate compounds to cells (HPLC and mass spectrometry); assay type: cell-based, human; conditions: 50 µM chelate compound, 0, 30 and 90 minutes at 37 °C; % adsorbed relative to time zero
ATTRIBUTE MEASURED: Adsorption Caco-2

A selection of reference data follows.
>>> experimental_result("COP(=O)(O)Cc1c(C)c(CP(=O)(O)OC)c(C)c(CP(=O)(O)OC)c1C")
"0 (0 = 0-10%)"
>>> experimental_result("CCCCOP(=O)(O)Cc1cc(CP(=O)(O)OCCCC)cc(CP(=O)(O)OCCCC)c1")
"++ (++ = 21-40%)"
>>> experimental_result("CCN(CC)CCCN(CC)CCCN(CC)CC")
"++ (++ = 21-40%)"
>>> experimental_result("CCOP(=O)(O)Cc1c(C)c(CP(=O)(O)OCC)c(C)c(CP(=O)(O)OCC)c1C")
"0 (0 = 0-10%)"
>>> experimental_result("CCCCOP(=O)(O)Cc1ccc2cc(C)ccc2n1")
"++ (++ = 21-40%)"
>>> experimental_result("COP(=O)(O)Cc1cc(CP(=O)(O)OC)cc(CP(=O)(O)OC)c1")
"0 (0 = 0-10%)"

Would you kindly look at the next entry?
Short answer please: Adsorption Caco-2, Caco-2 cells, entry `COP(=O)(O)Cc1ccc2cc(C)ccc2n1`
0 (0 = 0-10%)

====

system: Caco-2 cells; test: Adsorption of chelate compounds to cells (HPLC and mass spectrometry); assay type: cell-based, human
ATTRIBUTE MEASURED: adsorption in carcinoma cell line Caco-2

Consider the worked cases shown below.
>>> experimental_result("CCOP(=O)(O)Cc1ccc2cc(C)ccc2n1")
"adsorbed"
>>> experimental_result("CCCCOP(=O)(O)Cc1c(C)c(CP(=O)(O)OCCCC)c(C)c(CP(=O)(O)OCCCC)c1C")
"adsorbed"
>>> experimental_result("CCCCOP(=O)(O)Cc1cc(CP(=O)(O)OCCCC)cc(CP(=O)(O)OCCCC)c1")
"adsorbed"
>>> experimental_result("COP(=O)(O)Cc1cccc(CP(=O)(O)OC)n1")
"adsorbed"
>>> experimental_result("CCCCOP(=O)(O)Cc1cccc(CP(=O)(O)OCCCC)n1")
"adsorbed"

Name the recorded adsorption in carcinoma cell line Caco-2 for `COP(=O)(O)Cc1cc(CP(=O)(O)OC)cc(CP(=O)(O)OC)c1` .
did not adsorb

What adsorption in carcinoma cell line Caco-2 value was documented for this compound, `COP(=O)(O)Cc1ccc2cc(C)ccc2n1` ?
did not adsorb

# query: adsorption in carcinoma cell line Caco-2 of entry `CCOP(=O)(O)Cc1cc(CP(=O)(O)OCC)cc(CP(=O)(O)OCC)c1`
adsorbed

// lookup adsorption in carcinoma cell line Caco-2 for `CCN(CC)CCCN(CC)CCCN(CC)CC`
adsorbed

Dear colleague, I am looking for the recorded adsorption in carcinoma cell line Caco-2 of the following compound: `COP(=O)(O)Cc1c(C)c(CP(=O)(O)OC)c(C)c(CP(=O)(O)OC)c1C`
did not adsorb

Fill in: adsorption in carcinoma cell line Caco-2 of `CCCCOP(=O)(O)Cc1ccc2cc(C)ccc2n1` is ___
adsorbed

====

system: cancer cells (LNCaP, Caco-2, T84); assay: Chelate permeability and specificity, cancer cells versus normal cells (summary); format: cell-based, human; settings: cancer cells
ATTRIBUTE MEASURED: permeability to cell membranes

>>> experimental_result("COP(=O)([O-])CN1CCN(CP(=O)([O-])OC)Cc2cccc(n2)CN(CP(=O)([O-])OC)CC1.[Tb+3]")
"no permeability"
>>> experimental_result("O=C([O-])CN1CCN(CC(=O)[O-])Cc2cccc(n2)CN(CC(=O)[O-])CC1.[Tb+3]")
"no permeability"

====

system: HEK293 cells; assay: Adsorption of chelate compounds to cells (HPLC and mass spectrometry); format: cell-based, human; details: 50 µM chelate compound, 0, 30 and 90 minutes at 37 °C; % adsorbed relative to time zero
ATTRIBUTE MEASURED: Adsorption HEK293

Known Adsorption HEK293 results, listed for orientation:
>>> experimental_result("COP(=O)(O)CNCCCN(CCCNCP(=O)(O)OC)CP(=O)(O)OC [Compound 19]")
"++ (++ = 21-40%)"
>>> experimental_result("CCCCOP(=O)(O)Cc1ccc2cc(C)ccc2n1 [Compound 3]")
"0 (0 = 0-10%)"
>>> experimental_result("COP(=O)(O)Cc1cc(CP(=O)(O)OC)cc(CP(=O)(O)OC)c1 [Compound 7]")
"0 (0 = 0-10%)"
>>> experimental_result("CCOP(=O)(O)CNCCCN(CCCNCP(=O)(O)OCC)CP(=O)(O)OCC [Compound 20]")
"++ (++ = 21-40%)"
>>> experimental_result("CCN(CC)CCCN(CC)CCCN(CC)CC [Compound 23]")
"+ (+ = 11-20%)"
>>> experimental_result("CCCCOP(=O)(O)Cc1cc(CP(=O)(O)OCCCC)cc(CP(=O)(O)OCCCC)c1 [Compound 9]")
"0 (0 = 0-10%)"
>>> experimental_result("CCOP(=O)(O)Cc1c(C)c(CP(=O)(O)OCC)c(C)c(CP(=O)(O)OCC)c1C [Compound 11]")
"0 (0 = 0-10%)"
>>> experimental_result("CN(C)Cc1cc(CN(C)C)cc(CN(C)C)c1 [Compound 13]")
"0 (0 = 0-10%)"
>>> experimental_result("Cc1c(CN(C)C)c(C)c(CN(C)C)c(C)c1CN(C)C [Compound 16]")
"0 (0 = 0-10%)"
>>> experimental_result("COP(=O)(O)Cc1ccc2cc(C)ccc2n1 [Compound 1]")
"0 (0 = 0-10%)"

Then there is this molecule:
Find Adsorption HEK293 (HEK293 cells) for the entry CCOP(=O)(O)Cc1ccc2cc(C)ccc2n1 [Compound 2]
0 (0 = 0-10%)

These measurements were taken from patent US20060210479A1.
